Tested on: BT-549 breast
assay comment: NCI-60 one-dose screen, 48 h (100 = growth as untreated, 0 = no growth, -100 = all killed)
test parameters: 10 µM unless noted
This is part of a sample that, as a whole, favours compounds with a hit. Of some 83,000 tested, about 20% had one in any assay.
Property: growth; scope: individual molecules
// note: answer is a bare numeric in %

COc1cc(C=Nc2cc(Cl)cc(Cl)c2)ccc1N(CCCl)CCCl | 85.4
CC[C@H](C)[C@@H]1OC(=O)C(C)(C)[C@H](O)[C@H](Cc2ccccc2)OC(=O)[C@H](C(C)C)OC(=O)[C@@H](NC(=O)c2cccc(NC=O)c2O)[C@@H](C)OC1=O | 53.8
COC(=O)[C@@H](C)C[C@H](Cc1ccccc1)NC(=O)c1nc([C@@H](C[C@H](C(C)C)N(C)C(=O)[C@@H](NC(=O)[C@H]2CCCCN2C)C(C)C)OC(C)=O)sc1C | -23.4
O=Cc1cn(Cc2ccc(Cl)cc2)c2ccccc12 | 92.7
CC(C)COC(C[N+](=O)[O-])C(Cl)(Cl)Cl (stereo unspecified) | 106
CC[C@@H]1[C@@H](C)O[C@@](O)([C@@H](C)[C@H](O)[C@H](C)[C@H]2OC(=O)/C=C/C=C/[C@H](C)[C@@H]([C@@H](C)[C@@H](O)[C@H](C)[C@@]3(O)C[C@@H](O[C@H]4C[C@@H](O)[C@H](O)C(C)O4)[C@H](CC)[C@@H](C)O3)OC(=O)/C=C/C=C/[C@@H]2C)C[C@H]1O[C@@H]1C[C@@H](O)[C@H](O)C(C)O1 (stereo partly specified) | -90.5
Fc1ccc(N2COOC3(OOC2)C2CC4CC(C2)CC3C4)cc1 | 95.4
O=C1N[C@@H]2[C@@H](O)[C@@H](O)[C@H](O)C[C@H]2c2cc3c(c(O)c21)OCO3 | -12.5

Bench note: what growth did "COC(=O)C12CC(NC(=O)c3csc([C@@H](C[C@H](C(C)C)N(C)C(=O)[C@@H](NC(=O)[C@H]4CCCCN4C)C(C)C)OC(C)=O)n3)(C1)C2" show?
-25.8

Further, for COc1ccc([As]=[As]c2ccc(OC)c(NCS(=O)(=O)O)c2)cc1NCS(=O)(=O)O (stereo unspecified) ?
-12.1

Try this molecule too: CC(CC1CCCCC1)NCc1ccccc1 (stereo unspecified)
97.7

Okay, and CCCCOc1ccc(C(N)Cc2ccccc2)cc1 (stereo unspecified) ?
101

Subsequent entry: "COc1ccc2c(c1)c(-c1nc(-c3cn(C)c4ncccc34)cs1)cn2CCCCN1CCCCC1"
85.1

Now consider "COC(=O)[C@@H](C)C[C@H](Cc1ccccc1)NC(=O)c1nc([C@@H](C[C@H](C(C)C)N(C)C(=O)[C@@H](NC(=O)[C@H]2C[C@H](O)CCN2C)C(C)C)OC(C)=O)sc1C(C)C" .
-30.8

Same read-out for "CCCCN(CCCC)P(=O)(Oc1ccccc1)Oc1ccccc1" ?
73.5

"O=C(c1ccccc1O)c1[nH]c(Cl)c(Cl)c1-n1c(C(=O)c2ccccc2O)cc(Cl)c1Cl" ?
-5.5

* * *

Tested on: HS 578T breast
assay comment: NCI-60 one-dose screen, 48 h (100 = growth as untreated, 0 = no growth, -100 = all killed)
test parameters: 10 µM unless noted
Procedure: Growth inhibition of the HS 578T human tumor cell line is measured as a screen for anti-cancer activity. Cells are grown in 96 well plates and exposed to the test compound for 48 hours. Compounds are tested at a single concentration, which is 10^-5 M for most compounds. The reported endpoint is percent growth (GI% or GIPRCNT), where numbers from 0 - 100% represent growth inhibition, and numbers from -100% - 0 represent cell death. For example, a value of 40 represents 60% growth inhibition. […]
This is part of a sample that, as a whole, favours compounds with a hit. Of some 83,000 tested, about 20% had one in any assay.
measured quantity: growth (%)
Report the value in % with no unit label.

COc1ccc(O)c(CNC(=O)CN2CCCC2=O)c1 | 94
CN1C(=O)N[C@H]2[C@@H]3NC(=O)c4ccc(Br)n4[C@@H]3C[C@]21O | -28.5
Clc1ccc(CSC(Cn2ccnc2)c2ccc(Cl)cc2Cl)cc1 (stereo not given) | 63.5

Look at this molecule and give its reported growth. "CN1C(=O)C(=Cc2cn(Cc3ccccc3)c3ccccc23)C(=O)N(C)C1=O"
86.8

Also need "COc1ccc(/C(C)=C(\c2ccc(OCCN3CCOCC3)cc2)c2ccc(OC(=O)Cc3ccccc3)cc2)cc1" , thanks.
110

* * *

Tested on: MCF7 breast
assay comment: NCI-60 one-dose screen, 48 h
test parameters: 10 µM unless noted
Compounds without any hit were thinned out: in the full panel of roughly 83,000, 20% have a hit. Active and inactive are the calls of the source. The calls were made as follows: active = growth percent below 10; inactive = the rest.
Use one of these outcomes when replying: t for active, f for inactive

These recorded examples may help you get a feel for the data.
CC[C@@H]1[C@@H](C)O[C@@](O)([C@@H](C)[C@H](O)[C@H](C)[C@H]2OC(=O)/C=C/C=C/[C@H](C)[C@@H]([C@@H](C)[C@@H](O)[C@H](C)[C@@]3(O)C[C@@H](O[C@H]4C[C@@H](O)[C@H](O)C(C)O4)[C@H](CC)[C@@H](C)O3)OC(=O)/C=C/C=C/[C@@H]2C)C[C@H]1O[C@@H]1C[C@@H](O)[C@H](O)C(C)O1 (some centres not stated) | t
CCOC(=O)C(Cc1ccc(N(CCCl)CCCl)cc1)NC(=O)C(CC(C)C)NC(C)=O (configuration not stated) | f
COc1ccc(S(=O)(=O)Nc2c(/C=C\c3cc(OC)c(OC)c(OC)c3)ccc(OC)c2O)cc1OC | f
C/C(=C\c1cc(C(F)(F)F)nn1CCNC(=O)OC(C)(C)C)[C@@H]1C[C@@H]2O[C@]2(C)CCC[C@H](C)[C@H](O)[C@@H](C)C(=O)C(C)(C)[C@@H](O)CC(=O)O1 | f
CCOC(=O)c1c(C)n(Cc2ccccc2)c2cc(CN(C)C)c(O)cc12 | f
C/C(=C\c1ccn(-c2ccc(N)cc2C(F)(F)F)n1)[C@@H]1C[C@@H]2O[C@]2(C)CCC[C@H](C)[C@H](O)[C@@H](C)C(=O)C(C)(C)[C@@H](O)CC(=O)O1 | f

Read the next record carefully.
Identify the outcome logged in this assay for the compound shown: O=C1C2CC=CCC2C(=O)N1SC(Cl)(Cl)Cl (configuration not stated)
f

* * *

Test system: NCI-H460 lung
assay comment: NCI-60 one-dose screen, 48 h (100 = growth as untreated, 0 = no growth, -100 = all killed)
test parameters: 10 µM unless noted
Description: Growth inhibition of the NCI-H460 human Non-Small Cell Lung tumor cell line is measured as a screen for anti-cancer activity. Cells are grown in 96 well plates and exposed to the test compound for 48 hours. Compounds are tested at a single concentration, which is 10^-5 M for most compounds. The reported endpoint is percent growth (GI% or GIPRCNT), where numbers from 0 - 100% represent growth inhibition, and numbers from -100% - 0 represent cell death. […]
Compounds without any hit were thinned out: in the full panel of roughly 83,000, 20% have a hit.
Label key: Fulfilled means growth under 20%; Not fulfilled means growth of 20% or more.

CN(C)C(=O)Oc1ccccc1-c1ccccc1 | Not fulfilled
O=C(c1ccccc1O)c1[nH]c(Cl)c(Cl)c1-n1c(C(=O)c2ccccc2O)cc(Cl)c1Cl | Fulfilled
CC[C@]12C=CCN3CC[C@@]4(c5ccc(OC)cc5N(C)[C@H]4[C@@](O)(C(=O)OC)[C@@H]1OC(=O)CCCC[P+](c1ccccc1)(c1ccccc1)c1ccccc1)[C@@H]32 | Fulfilled
O=C(c1cccc(O)c1O)c1cn(Cc2ccc(F)cc2)c2cccc(O)c12 | Fulfilled
COc1cc(/C=C\c2cc(OC)c(OC)c(OC)c2)cc(NS(=O)(=O)c2cccc(Cl)c2)c1OC | Fulfilled
O=C(CC1(O)C(=O)N(Cc2ccccc2)c2ccc(F)cc21)c1ccc(C(=O)NCC2CCC3(CC2)OOC2(CCCCC2)OO3)cc1 (stereo not drawn) | Fulfilled
COC(=O)[C@H](Cc1c[nH]c2ccccc12)NC(=O)[C@@H](OC)[C@@H]1Cc2cc3cc(OC4CC(OC5CC(O)C(O)C(C)O5)C(O)C(C)O4)c(C)c(O)c3c(O)c2C(=O)[C@H]1OC1CC(OC2CC(OC3CC(C)(O)C(O)C(C)O3)C(O)C(C)O2)C(O)C(C)O1 (stereo partly drawn) | Fulfilled
O=C1Nc2ccccc2C2c3cccn3-c3ccccc3CN12 (stereo not drawn) | Not fulfilled

Check if growth falls below 20% for "C#Cc1ccc2c(c1)C(c1ccccc1)=NCC(=O)N2C" .
Fulfilled

What do you have for "CC(=O)O[C@H](C[C@H](C(C)C)N(C)C(=O)[C@@H](NC(=O)[C@H]1CCCCN1C)C(C)C)c1nc(C(=O)N[C@@H](Cc2ccccc2)C[C@H](C)C(=O)O)c(CCOCc2ccccc2)s1" ?
Fulfilled

Continue with "CCCCN1CCCC[C@@H]1C(=O)N[C@H](C(=O)N(C)[C@H](CCc1nc(C(=O)N[C@@H](Cc2ccccc2)C[C@H](C)C(=O)OC)cs1)C(C)C)[C@@H](C)CC"
Not fulfilled

Now this one: "C/C1=C/C(=O)O[C@@H]2C[C@@H](CC[C@H](C)/C=C\C=C\CC1)O[C@@](O)([C@@H]1CSC(=O)N1CO)C2"
Not fulfilled

Then COc1ccc(C2=CC(c3ccc(OC)c(OC)c3)c3c(c4ccccc4oc3=O)O2)cc1OC (stereo not drawn) ?
Fulfilled

Now give it for "COC(=O)[C@@H](C)C[C@H](Cc1cn(C)c2ccccc12)NC(=O)c1csc([C@@H](C[C@H](C(C)C)N(C)C(=O)[C@@H](NC(=O)[C@H]2CCCCN2C)C(C)C)OC(C)=O)n1" too.
Fulfilled

What about this compound? "COc1ccc(/C=C\c2cc(OC)c(OC)c(OC)c2)cc1OCC(=O)Nc1nc2ccc(F)cc2s1"
Not fulfilled

Same read-out for "NC(=Nc1ccccc1)N[N+](=O)[O-]" ?
Not fulfilled

What do you get for "N#C[S-].[Au+].c1ccc(CN2[CH-]N(Cc3ccccc3)C(c3ccccc3)=C2c2ccccc2)cc1" ?
Fulfilled

Okay, and "CCOC(=O)[C@@H](C)C[C@H](Cc1ccccc1)NC(=O)c1nc([C@@H](C[C@H](C(C)C)N(C)C(=O)[C@@H](NC(=O)[C@H]2CCCCN2C)C(C)C)OC(C)=O)sc1CCOCc1ccccc1" ?
Fulfilled

"CC1=C(CCCOC(=O)CN)C2=C(C)C3(CC3)[C@@](C)(O)C(=O)C2=C1" , same question.
Fulfilled

Subsequent entry: CCCCCCCCC(CO)NCCc1ccccc1 (stereo not drawn)
Not fulfilled

Another compound: N#CC1C(C#N)C2CCC1C1C2N1c1ccccc1 (stereo not drawn)
Not fulfilled

Same again, this time with "Nc1ccc2c(c1)Cc1cc(Br)ccc1-2"
Not fulfilled

How about "CC(=O)O[C@H](C[C@H](C(C)C)N(C)C(=O)[C@@H](NC(=O)[C@H]1CCCCN1C)C(C)C)c1nc(C(=O)N[C@@H](Cc2ccccc2)C[C@H](C)C(=O)O)c(C)s1" ?
Fulfilled

Then what about the compound "COc1ccc(Nc2ccnc3cc(Cl)ccc23)cc1CN(CCCl)CCCl" ?
Fulfilled

How about this compound: Cc1ccc2c(C(C[N+](=O)[O-])c3cccs3)c(-c3ccccc3)[nH]c2c1 (stereo not drawn)
Fulfilled

Param item: "CC[CH2][Sn]([Cl])([Cl])[CH2]CC"
Not fulfilled

Record: "CN1C(=O)N[C@H]2[C@@H]3NC(=O)c4ccc(Br)n4[C@@H]3C[C@]21O"
Fulfilled

Again, but for "O=C(O)CNC(=O)C(Cl)(Cl)Cl"
Not fulfilled

Here is the next compound: "CC(=O)OC[C@]1(C)C=C2C(=O)[C@](C)(O)C3(CC3)C(C)=C2[C@H]1OC(=O)N(C)CCN(C)C(=O)OC(C)(C)C"
Fulfilled

What do we get for "ClCCN(CCCl)Cc1ccc(Nc2ccnc3cc(Cl)ccc23)cc1" ?
Fulfilled
